system: SN12C renal; test: NCI tumour cell line growth inhibition, 48 h
Task for the reader: assign each of the following molecules its reported TGI.

- MOLECULE: "CC(=O)CN=C(C)NNc1ccc([N+](=O)[O-])cc1[N+](=O)[O-]"
  RECORDED_MEASUREMENT: "> 100 µM"
- MOLECULE: "C=C1C(=O)C=C2C=C3C(=O)C(C)(C)C[C@]3(O)C12C (some centres undefined)"
  RECORDED_MEASUREMENT: "23.9 µM"
- MOLECULE: "O=C(Oc1ccc([N+](=O)[O-])cc1)N1CCC(C(O)(c2ccc3c(c2)OCO3)c2ccc3c(c2)OCO3)CC1"
  RECORDED_MEASUREMENT: "> 100 µM"
- MOLECULE: "O=C(O)/C(O)=C1/C=C(c2ccccc2)c2ccccc21"
  RECORDED_MEASUREMENT: "61.9 µM"
- MOLECULE: "Cc1ccc2c(c1)NC(=O)C(N=[N+]=[N-])(c1ccccc1)C2=O (centres undefined)"
  RECORDED_MEASUREMENT: "48.2 µM"
- MOLECULE: "COC(=O)/C(=C/N1CCN(C(=O)c2ccco2)C1=S)C(C)=O"
  RECORDED_MEASUREMENT: "22.4 µM"
- MOLECULE: "CN/N=C(\\C)CC(=O)Nc1cccc(Cl)c1C"
  RECORDED_MEASUREMENT: "> 100 µM"
- MOLECULE: "CCC(=S)N(C)O"
  RECORDED_MEASUREMENT: "> 100 µM"
- MOLECULE: "CC[n+]1[b-](C(C)(C)C)n(/N=C(\\C)C(C)(C)C)[b-](C(C)(C)C)[n+]1CC"
  RECORDED_MEASUREMENT: "> 100 µM"
- MOLECULE: "N/C(=N\\C(=S)N1CCCCC1)N1CCCCC1"
  RECORDED_MEASUREMENT: "> 100 µM"

Provide the reported TGI of each entry below, same order.
1. Clc1ccc2c(NCCCN3CCN(c4nc(-n5ccnc5)nc5ccccc45)CC3)ccnc2c1
2. C(/COc1cccnc1)=N\NC1=NCCN1
3. COc1ccc(C2=C(OC(C)=O)c3cccn3-c3ccccc3S2)cc1
4. COc1cc(/C=C2\C(=O)N(c3c(Cl)cccc3Cl)c3ccccc32)cc(OC)c1O
5. Cc1ccc(C(=O)/C=C/c2ccccc2Cl)cc1

RESULT:
> 100 µM
> 100 µM
> 10 µM
17.6 µM
39.3 µM

// each listed molecule needs a value for TGI
1. NC(C(=O)O)C(N)C(=O)O (centres undefined)
2. CCC(C)(C)NC1=C(NC(C)=O)C(=O)c2ccccc2C1=O
3. NC(=O)c1c(OCc2c(F)cc(Br)cc2F)nsc1NC(=O)NCCCCN1CCCC1
4. Nc1nc(Cl)c2ncn(Cc3ccccc3CCl)c2n1
5. O=C1C=C(Br)C(=O)C(Br)=C1
6. O=C(Nc1cc(C(F)(F)F)ccc1Cl)C(=O)C(C(=O)c1ccc2ccccc2c1)C1OC(=O)c2ccccc21 (centres undefined)

RESULT:
> 100 µM
> 75 µM
8.28 µM
5.62 µM
> 100 µM
21 µM

Parameters: items (list). Returns: TGI for each item.
1. CC(=O)OCCn1c(Cc2ccc([N+](=O)[O-])cc2)nn(C(C)=O)c1=O
2. COc1cc2cc(C(=O)O)[nH]c2cc1OCc1ccccc1
3. O=C(c1nsc(Cl)c1Cl)N1CCCCC1

RESULT:
1. > 100 µM
2. > 100 µM
3. > 100 µM

* * *

tested on: U251 CNS; test: NCI tumour cell line growth inhibition, 48 h
For each entry below, report its TGI value.

Previously resolved entries follow.
- MOLECULE: "CCOC(=O)c1sc2nc(SC)nc(Nc3ccc(OC)c(OC)c3)c2c1N"
  TESTED_SYSTEM: "U251 CNS"
  TGI: "> 100 µM"
- MOLECULE: "Nc1nc(Nc2ccc(Cl)cc2)sc1C(=O)c1cc2ccccc2oc1=O"
  TESTED_SYSTEM: "U251 CNS"
  TGI: "> 100 µM"
- MOLECULE: "COc1ccc(-c2c(N)[n+]([O-])c3cc(C)c(C)cc3[n+]2[O-])cc1OC"
  TESTED_SYSTEM: "U251 CNS"
  TGI: "> 100 µM"

Dear colleague, could you please provide TGI for the molecules listed below?
1. COC1OC(C)C(OC(=O)C(C)(C)C)C(C)(O)C1O (stereo unspecified)
2. CC(NC1CCC[C@H]1O)c1ccccc1 (mixture of isomers)
3. O=C1OC(=O)C2C3CCC(O3)C12 (stereo unspecified)
4. Cc1sc(N=Nc2c(O)[nH]c3ccccc23)nc1-c1ccccc1

RESULT:
["> 100 µM", "> 100 µM", "> 100 µM", "34.3 µM"]

Items follow; give TGI for each.
1. O=C(Nc1ccc(-n2cc(-c3ccncc3)c(-c3ccc(Cl)c(O)c3)n2)cc1)c1cc(Cl)cc(Cl)c1
2. C#C[C@]1(O)CC[C@H]2[C@@H]3CC=C4c5nc(Nc6ccc(OC)cc6OC)sc5CC[C@]4(C)[C@H]3CC[C@@]21C

RESULT:
1. > 100 µM
2. 4.09 µM

Would you be so kind as to report TGI for each listed record?
1. O=C(O)C1Cc2nc[nH]c2CN1 (stereo unspecified)
2. CNC(=O)OCc1nc(S(C)=O)n(C)c1COC(=O)NC (stereo unspecified)

RESULT:
["> 100 µM", "> 100 µM"]

* * *

system: SK-OV-3 ovarian; assay: NCI tumour cell line growth inhibition, 48 h; in the data active = GI50 below about 0.43 µM; inactive = the rest
# output must be one of label 1 = active, label 0 = inactive

Known results for compounds:
- COMPOUND: "CCN(C)S(=O)(=O)Nc1cccc(Nc2ncnc3cc(NC(=O)CCl)ccc23)c1Cl"
  TESTED_SYSTEM: "SK-OV-3 ovarian"
  ASSIGNED_CLASS: "label 0"
- COMPOUND: "N#Cc1ccc(-n2cnc(NC(=O)[C@H]3CCN(C#N)C3)c2)cc1"
  TESTED_SYSTEM: "SK-OV-3 ovarian"
  ASSIGNED_CLASS: "label 0"
- COMPOUND: "O=C1c2cccc3c(N4CCN(c5ccc6c7c(cccc57)C(=O)N(CCN5CCNCC5)C6=O)CC4)ccc(c23)C(=O)N1CCN1CCNCC1"
  TESTED_SYSTEM: "SK-OV-3 ovarian"
  ASSIGNED_CLASS: "label 0"

QUERY: // param item: N#CC1=C(N)Oc2c(sc3c(F)cccc23)C1c1ccc([N+](=O)[O-])cc1 (centres undefined) ; yields the recorded call
RESULT: label 1

QUERY: Each compound tested received a call. Report the one for `C[C@]12CC[C@H]3[C@@H](C[C@@H]4SC(Nc5cccc(F)c5)=N[C@@]45CC(=O)CC[C@]35C)[C@@H]1CCC2=O` .
RESULT: label 0

QUERY: Name the outcome recorded for `COC(=O)c1c2c(c(C)[n+]([O-])c1C)C(=O)C(NCc1ccc(F)c(Cl)c1)=CC2=O` in the assay.
RESULT: label 0

* * *

Exercise: for every item that follows, state its recorded TGI.
system: SF-539 CNS; test: NCI tumour cell line growth inhibition, 48 h

- COMPOUND: "O=C1OC(c2ccc([N+](=O)[O-])cc2)=N/C1=C\\c1ccc(O)cc1"
  TGI: "> 100 µM"
- COMPOUND: "COC(CNC(=O)C(C)NC(=O)C(C)NC(=O)c1ccccc1)OC (stereo unspecified)"
  TGI: "> 100 µM"

For every item in the list below, what is its measured TGI?
1. COc1ccc(C(=O)C(C(=O)C(=O)Nc2nc3ccc(OC)cc3s2)c2ccc(OC)cc2)cc1 (stereo unspecified)
2. O=C1Nc2ccccc2SC1C1SC(=S)N(Cc2ccccc2)C1=O (stereo unspecified)
3. CCCCCN(CCCCC)C(=O)[C@@H](CCC(=O)OCc1ccccc1)NC(=O)c1cc2ccccc2[nH]1
4. Cn1cc(-c2ccc(CCOC3CCCCO3)cc2)c2c(C#N)cccc21 (stereo unspecified)
5. O=C(O)/C(O)=C1/C=C(c2ccccc2)c2ccccc21
6. CC(C)C1OCC(CO)CO1 (stereo unspecified)
7. O=C(O)[C@@H]1C[C@@H](O)CN1

RESULT:
1: > 100 µM; 2: 12.8 µM; 3: > 100 µM; 4: > 100 µM; 5: 82.3 µM; 6: > 100 µM; 7: > 100 µM

Respectfully, I request TGI for each entry included below.
1. CS(=O)(=O)c1ccc(C(F)(F)F)cc1NC(=O)Nc1cnc(Oc2ccc(-c3cc(Cl)cnc3N)cc2)nc1
2. CC(NC1CCC[C@H]1O)c1ccccc1 (mixture of isomers)

RESULT:
4.96 µM
> 100 µM

* * *

test system: SNB-19 CNS; assay: NCI tumour cell line growth inhibition, 48 h
ENDPOINT_LABEL: log10(TGI) (log10 of the value in µM)
log10 TGI, µM

Would you please look over these solved cases?
- MOLECULE: "O=C1C(Nc2ccccn2)=C(I)C(=O)c2ncccc21"
  ENDPOINT_LABEL: "log10(TGI)"
  RECORDED_MEASUREMENT: 0.35
- MOLECULE: "C[C@]12CC[C@@H]3c4ccc(O)cc4CC[C@H]3[C@@H]1CC[C@@H]2NS(=O)(=O)c1cccc(Br)c1"
  ENDPOINT_LABEL: "log10(TGI)"
  RECORDED_MEASUREMENT: 1.31
- MOLECULE: "CCN(CC)CC(C)(C)C(=O)/C=C/c1ccc(C)cc1"
  ENDPOINT_LABEL: "log10(TGI)"
  RECORDED_MEASUREMENT: 1.40
- MOLECULE: "C[C@]12CC[C@H]3[C@@H](C[C@@H]4SC(Nc5cccc(F)c5)=N[C@@]45CC(=O)CC[C@]35C)[C@@H]1CCC2=O"
  ENDPOINT_LABEL: "log10(TGI)"
  RECORDED_MEASUREMENT: 0.76
- MOLECULE: "C#C[C@]1(O)CC[C@H]2[C@@H]3CC=C4c5nc(Nc6ccc(OC)cc6OC)sc5CC[C@]4(C)[C@H]3CC[C@@]21C"
  ENDPOINT_LABEL: "log10(TGI)"
  RECORDED_MEASUREMENT: 1.03

Please state, for each entry, its recorded log10(TGI).
1. O=C(Nc1cc(C(F)(F)F)ccc1Cl)C(=O)C(C(=O)c1ccc2ccccc2c1)C1OC(=O)c2ccccc21 (stereo not given)
2. CN1c2ccccc2C2c3c(O)ccc(O)c3C=C([N+](=O)[O-])C21 (stereo not given)
3. C/C=C(/C)C(=O)OC1C=C(CO)C(=O)C(OC(=O)/C(C)=C\C)C1C(C)C (stereo not given)

RESULT:
1.31
0.31
0.45

# credit: PubChem BioAssay (NCI)
